Data provenance: ChEMBL document CHEMBL4177553

# TARGET_DESC: UniProtKB P05181
# Sequence (P05181 whole entry): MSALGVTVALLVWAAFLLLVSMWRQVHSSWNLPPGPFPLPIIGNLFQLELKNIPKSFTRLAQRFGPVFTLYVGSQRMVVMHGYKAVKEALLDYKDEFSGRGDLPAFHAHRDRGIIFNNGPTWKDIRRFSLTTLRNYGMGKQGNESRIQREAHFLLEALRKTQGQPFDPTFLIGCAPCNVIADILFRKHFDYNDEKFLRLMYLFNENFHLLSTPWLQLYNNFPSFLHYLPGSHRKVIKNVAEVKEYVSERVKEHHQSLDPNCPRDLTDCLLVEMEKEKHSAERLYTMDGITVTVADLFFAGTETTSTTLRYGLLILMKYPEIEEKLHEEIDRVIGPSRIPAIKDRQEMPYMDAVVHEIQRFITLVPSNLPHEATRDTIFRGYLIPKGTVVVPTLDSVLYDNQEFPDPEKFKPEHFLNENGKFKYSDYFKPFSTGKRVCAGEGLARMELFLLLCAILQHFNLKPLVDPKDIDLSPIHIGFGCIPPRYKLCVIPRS
# ASSAY_NOTES: Inhibition of CYP2E1 in human liver microsomes assessed as reduction in formation of chlorzoxazone to 6-Hydroxy chlorzoxazone at 50 uM preincubated for 30 mins followed by substrate addition measured after 15 mins in presence of NADPH by UPLC-MS analysis
# Format: ADME
# PARTICULARS: 0.25 h
MEASURED_QUANTITY: inhibition (INH)

CC(=O)OC[C@@]12[C@H](OC(C)=O)[C@H](OC(C)=O)[C@@H]3[C@@H](OC(C)=O)[C@@]14O[C@@]3(C)COC(=O)c1cccnc1[C@@H](C)[C@H](C)C(=O)O[C@@H]([C@H](OC(C)=O)[C@@H]2OC(C)=O)[C@]4(C)O    Not Active
CC(=O)OC[C@]12[C@H](OC(C)=O)[C@H](OC(C)=O)[C@@H]3[C@@H](OC(C)=O)[C@@]14O[C@@]3(C)COC(=O)c1cccnc1CC[C@H](C)C(=O)O[C@@H]([C@H](OC(=O)c1ccccc1)[C@@H]2OC(C)=O)[C@]4(C)O    Active
CC(=O)OC[C@]12[C@H](OC(C)=O)[C@H](OC(C)=O)[C@@H]3[C@@H](OC(C)=O)[C@@]14O[C@@]3(C)COC(=O)c1cccnc1CC[C@@](C)(O)C(=O)O[C@@H]([C@H](OC(=O)c1ccccc1)[C@@H]2OC(C)=O)[C@]4(C)O    Active
CC(=O)OC[C@]12[C@H](OC(C)=O)[C@H](OC(C)=O)[C@@H]3[C@@H](OC(C)=O)[C@@]14O[C@@]3(C)COC(=O)c1cccnc1CC[C@@](C)(O)C(=O)O[C@@H]([C@H](OC(=O)c1ccoc1)[C@@H]2OC(C)=O)[C@]4(C)O    Not Active

Please turn your attention to the following entry.
Entry CC(=O)OC[C@]12[C@H](OC(C)=O)[C@H](OC(C)=O)[C@@H]3[C@@H](OC(C)=O)[C@@]14O[C@@]3(C)COC(=O)c1cccnc1CCC(C)C(=O)O[C@@H]([C@H](OC(=O)c1ccoc1)[C@@H]2OC(C)=O)[C@]4(C)O (stereo not given in full) ; assay system UniProtKB P05181; inhibition (INH) recorded at Not Active
